Molecular target: T1, T4 (Tn-MUC1) (PAPGSTAPPAHGVT(α-GalNAc)SAPDTRPAPG-OH)
T1 peptide: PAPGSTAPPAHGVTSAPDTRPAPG
Assay: glycopeptide array
endpoint.label: EC50 (µg/mL)
The reply should be a number in µg/mL, with the unit left off.

Q: Need EC50, item 17 (antibody, V domains shown) VH: QVQLVQSGAEVKKPGASVRVSCKASGYPFINYYIQWVRQAPGQGLEWMGVVNPYDGSTNYAQKFQGRVSITRDASTSTVFMELNSLRSEDTAVYYCARDSMLGHVIFDFWGQGTLVTVSS
Result: 0.098

Q: Need EC50, item 82 (antibody, V domains shown) VH: QVQLVQSGAEVKKPGASVKVSCKASGYTFTSYYIHWVRQAPGQGLEWMGVINPYDSSTNYAQKFQGRVTMTRDTSTSTVFMDLSSLRSEDTAVYYCARDNMIGYVLFDYWGQGTLVTVSS
Result: 0.145

Q: Need EC50, item 206 (antibody, V domains shown) VH: QVQLVQSGAEVKKPGASVRVSCKASGYPFINYYIQWVRQAPGQGLEWMGVINPFDGSTNYAQKFQGRVTVTRDTSTSTVFMDLNSLRSEDTAVYYCARDSMIGYVLFDFWGQGTLVTVSS
Result: 0.068

Q: Need EC50, item 154 (antibody, V domains shown) VH: QVQLVQSGAEVKKSGASVKVSCKASGYIFTSYYIQWVRQAPGQGLEWMGVINPFDGSTDYAQKFQGRVTVTRDTSTTTVFMELSSLRSEDTAVYYCARDNMLGYVLFDYWGQGTLVTVSS
Result: 0.13

Q: Need EC50, item 146 (antibody, V domains shown) VH: QVQLVQSGAEVKKPGASVKVSCKASGYAFTSYYIHWVRQAPGQGLEWMGVINPYGGSTNYAQKFQGRVTMTRDTSTRIVYMDLSSLRSEDTAVYYCARDAMEGDSYFDYWGQGTLVTVSS
Result: 0.081

Q: Need EC50, item 118 (antibody, V domains shown) VH: QVQLVQSGAEVKKPGASVKVSCKASGYTFTNYYIQWVRQAPGQGLEWMGVINPYDGSTNYAQRFQGKITLTRDTSTTTVYMELSSLGSEDTAVYYCARDYMIGYVVFDYWGQGTMVTVSS
Result: 0.097

Q: Need EC50, item 98 (antibody, V domains shown) VH: QVQLVQSGAEVKKPGASVKVSCKASGYTFTSYYIQWLRQAPGQGLEWMGVINPTGGATNYAQKFQGRVTMTRETSTSMVHMELSSLRSEDTAVYYCARDYMRGYVVFDYWGQGTLVTVSS
Result: 0.116

Q: Need EC50, item 122 (antibody, V domains shown) VH: EVQLLESGAEVKKPGASVKVSCKASGYTFNRYYIHWVRQAPGQGLEWMGVINPYDGSTDYAQKFRDRITMTRDTSTNTVYMDLSSLRSEDTAVYFCARDAMEGDSYFDNWGRGTLVTVSS
Result: 0.108

FYI, the data here is from patent US20230250190A1.
